# Mortality (%) listing for each entry below
System: cat fleas
Measurement Description: whole plant or invertebrate
Assay type: in vivo
Condition Parameters: 1 ppm in bovine serum sucked through Parafilm at 37° C.; dead fleas after 48 hours; 20 fleas per group; corrected by control group
Description: A test container wherein the living space of fleas was isolated from bovine serum by use of Parafilm™ (obtainable from Aldrich Chemical Co. Ltd.), which is usually used as an artificial skin, was prepared. A compound to be tested was added to the bovine serum in an amount sufficient for its concentration to be 1 ppm, and the fleas were allowed to suck the serum sample through the Parafilm™ at 37° C. Each group consisted of 20 fleas. […]
Measured Property: Mortality (%)

{"Molecule": "CCC1OC2(CCC1C)CC1CC(CC=C(C)C(OC(=O)C3(c4ccc(NC(=O)COC)cc4)CCCC3)C(C)C=CC=C3COC4C(O)C(C)=CC(C(=O)O1)C34O)O2 (stereo not drawn)", "Measurement Target": "cat fleas", "Measurement": "90.2%"}
{"Molecule": "CCC1OC2(CCC1C)CC1CC(CC=C(C)C(OC(=O)C3(c4ccc(NC(C)=O)cc4)CCCC3)C(C)C=CC=C3COC4C(O)C(C)=CC(C(=O)O1)C34O)O2 (stereo not drawn)", "Measurement Target": "cat fleas", "Measurement": "95.0%"}
{"Molecule": "COCC(=O)Nc1ccc(C2(C(=O)OC3C(C)=CCC4CC(CC5(CCC(C)C(C)O5)O4)OC(=O)C4C=C(C)C(O)C5OCC(=CC=CC3C)C45O)CCCC2)cc1 (stereo not drawn)", "Measurement Target": "cat fleas", "Measurement": "87.6%"}
{"Molecule": "CCC1OC2(CCC1C)CC1CC(CC=C(C)C(OC(=O)C3(c4ccc(NS(C)(=O)=O)cc4)CCCC3)C(C)C=CC=C3COC4C(O)C(C)=CC(C(=O)O1)C34O)O2 (stereo not drawn)", "Measurement Target": "cat fleas", "Measurement": "100.0%"}
{"Molecule": "CC1=CC2C(=O)OC3CC(CC=C(C)C(OC(=O)C4(c5ccc(NS(C)(=O)=O)cc5)CCCC4)C(C)C=CC=C4COC(C1O)C42O)OC1(CCC(C)C(C)O1)C3 (stereo not drawn)", "Measurement Target": "cat fleas", "Measurement": "83.2%"}
{"Molecule": "CCC1OC2(CCC1C)CC1CC(CC=C(C)C(OC(=O)C3(c4ccc(N)cc4)CCCC3)C(C)C=CC=C3COC4C(O)C(C)=CC(C(=O)O1)C34O)O2 (stereo not drawn)", "Measurement Target": "cat fleas", "Measurement": "95.0%"}
{"Molecule": "CCC1OC2(CCC1C)CC1CC(CC=C(C)C(OC(=O)C3(c4ccc(NC(=O)CN(C)C(C)=O)cc4)CCCC3)C(C)C=CC=C3COC4C(O)C(C)=CC(C(=O)O1)C34O)O2 (stereo not drawn)", "Measurement Target": "cat fleas", "Measurement": "79.5%"}
{"Molecule": "CCC1OC2(CCC1C)CC1CC(CC=C(C)C(OC(=O)C3(c4ccc(NC(=O)CO)cc4)CCCC3)C(C)C=CC=C3COC4C(O)C(C)=CC(C(=O)O1)C34O)O2 (stereo not drawn)", "Measurement Target": "cat fleas", "Measurement": "74.4%"}
{"Molecule": "CCC1OC2(CCC1C)CC1CC(CC=C(C)C(OC(=O)C3(c4ccc(NC(=O)CC#N)cc4)CCCC3)C(C)C=CC=C3COC4C(O)C(C)=CC(C(=O)O1)C34O)O2 (stereo not drawn)", "Measurement Target": "cat fleas", "Measurement": "81.4%"}

* * *

The following compounds are shown together with reported Mortality (%) values.
System: cat fleas
Measurement Description: Test on insecticidal effect against cat fleas (Test Example 12, serum feeding through Parafilm)
Format: in vivo
Condition Parameters: 1 ppm in bovine serum, 37° C., after 48 hours, corrected by control group

{"Compound": "CCC1OC2(CCC1C)CC1CC(CC=C(C)C(OC(=O)C3(c4ccc(NS(C)(=O)=O)cc4)CCC3)C(C)C=CC=C3COC4C(O)C(C)=CC(C(=O)O1)C34O)O2 (centres unmarked) [Example 17]", "Mortality (%)": 94.9}
{"Compound": "CCC1OC2(CCC1C)CC1CC(CC=C(C)C(OC(=O)C3(c4ccc(NC(=O)COC)cc4)CCC3)C(C)C=CC=C3COC4C(O)C(C)=CC(C(=O)O1)C34O)O2 (centres unmarked) [Example 15]", "Mortality (%)": 100}
{"Compound": "C#CCCC(=O)Nc1ccc(C2(C(=O)OC3C(C)=CCC4CC(CC5(CCC(C)C(CC)O5)O4)OC(=O)C4C=C(C)C(O)C5OCC(=CC=CC3C)C45O)CCC2)cc1 (centres unmarked) [Example 19]", "Mortality (%)": 90.7}
{"Compound": "CCC1OC2(CCC1C)CC1CC(CC=C(C)C(OC(=O)C3(c4ccc(NC(C)=O)cc4)CCC3)C(C)C=CC=C3COC4C(O)C(C)=CC(C(=O)O1)C34O)O2 (centres unmarked) [Example 16]", "Mortality (%)": 92.9}
{"Compound": "CCC1OC2(CCC1C)CC1CC(CC=C(C)C(OC(=O)C3(c4ccc(NC(=O)C(F)(F)F)cc4)CCC3)C(C)C=CC=C3COC4C(O)C(C)=CC(C(=O)O1)C34O)O2 (centres unmarked) [Example 18]", "Mortality (%)": 91.5}
